Cited source: patent US9884806B2

system: IL-6 secretion in RAW264.7 cells; experiment: LPS-induced IL-6 secretion in murine macrophage RAW264.7 cells (ELISA); format: cell-based; conditions: LPS 1 μg/ml, 24 hours, mouse IL-6 ELISA
pIC50: −log10 of the molar value.
In this section, each of the compounds is paired with its reported pIC50.

CC1=C(Nc2ccc(C(=O)Nc3ccccc3C)cc2Cl)CCC1=O
6.00 to 6.70

Next up:
Q. Can you look up the measured pIC50 of `COc1ccc(NC(=O)c2ccc(NC3=C(C)C(=O)CC3)c(Cl)c2)cc1` for me?
A. 6.00 to 6.70

----------
biological target: first bromodomain (BrD1) of human BRD4 (Homo sapiens); construct: the first bromodomain (BrD1) of human BRD4; poly-His (cleaved yes); test: Fluorescence anisotropy binding assay (competition with FITC-labeled MS417 probe); conditions: FITC-MS417 probe 80 nM, PBS pH 7.4, 1 hour, 25° C., read-out: BRD4_1 IC50
OBSERVABLE: IC50

The cases that follow already have their IC50 on record.
CNC(=O)c1ccc(NC2=C(C)C(=O)CC2)c(C)c1
1000 to 10000 nM
CC1=C(Nc2cc(NS(=O)(=O)C3CCCCC3)ccc2Cl)CCCC1=O
< 1000 nM
COc1ccc(NC(=O)c2ccc(NC3=C(C)C(=O)CC3)cc2Cl)cc1
1000 to 10000 nM

Q. // map `CC1=C(Nc2cc(C(=O)Nc3ccc(C(=O)O)cc3C)ccc2Cl)CCCC1=O` to recorded IC50 (system: first bromodomain (BrD1) of human BRD4 (Homo sapiens))
A. 1000 to 10000 nM

Q. Recorded IC50 for `CC1=C(Nc2cc(NS(=O)(=O)Cc3ccccc3)ccc2Cl)CCC1=O` with first bromodomain (BrD1) of human BRD4 (Homo sapiens), please?
A. < 1000 nM
